Value source: patent US20240408222A1

- Tested on: HT29
- TEST_METHOD_NOTES: Cytotoxicity assay (Version 2, automated, AC50) with/without neutrophil elastase
- Type: cell-based, human
- ASSAY_SETUP: HT29, without (−) neutrophil elastase, Version 2, activity concentration at −50%
Counter-ions that a name gives are not always drawn.
Form field: AC50 (one value per entry).
REPORTED_ENDPOINT: AC50

CCCNC(=O)Nc1cccc(S(=O)(=O)Nc2cccc([C@H](CC(=O)O)NC(=O)Nc3ccc(NC(=O)NCCOCCOCCOCCC(=O)N[C@@H](CC(=O)O)C(=O)N4CCC[C@H]4C(=O)N[C@H](C(=O)N=[S@@](C)(=O)Cc4cc5cc(c4)OCCCCOc4cc(F)ccc4-c4nc(ncc4F)N5)C(C)C)cc3)c2)c1 | > 1000 nM
CCCNC(=O)Nc1cccc(S(=O)(=O)Nc2cccc([C@@H](CC(=O)O)NC(=O)Nc3ccc(NC(=O)NCCOCCOCCOCCC(=O)N[C@@H](CC(=O)OCCC[N+](C)(C)C)C(=O)N4CCC[C@H]4C(=O)N[C@H](C(=O)N=S(C)(=O)Cc4cc5cc(c4)OCCCCOc4cc(F)ccc4-c4nc(ncc4F)N5)C(C)C)cc3)c2)c1 (single isomer, unassigned) [Compound 20, trifluoroacetate] | > 1000 nM
CCCNC(=O)Nc1cccc(S(=O)(=O)Nc2cccc([C@@H](CC(=O)O)NC(=O)Nc3ccc(NC(=O)NCCN(C)CCN(C)CCN(C)CC(=O)N[C@@H](CC(N)=O)C(=O)N4CCC[C@H]4C(=O)N[C@H](C(=O)N=[S@](C)(=O)Cc4cc5cc(c4)OCCCCCNc4cc(ccc4F)-c4nc(ncc4F)N5)C(C)C)cc3)c2)c1 (relative stereo) | > 1000 nM
CCCNC(=O)Nc1cccc(S(=O)(=O)Nc2cccc([C@@H](CC(=O)O)NC(=O)Nc3ccc(NC(=O)NCCN(C)CCN(C)CCN(C)CC(=O)N[C@@H](CC(N)=O)C(=O)N4CCC[C@H]4C(=O)N[C@H](C(=O)N=[S@@](C)(=O)Cc4cc5cc(c4)O[C@@H](C)CCOc4cc(F)ccc4-c4nc(ncc4F)N5)C(C)C)cc3)c2)c1 (single isomer, unassigned) | 100 to 1000 nM
CCCNC(=O)Nc1cccc(S(=O)(=O)Nc2cccc([C@@H](CC(=O)O)NC(=O)Nc3ccc(NC(=O)NCCOCCOCCOCCC(=O)N[C@@H](CC(=O)OCCCCN(C)C)C(=O)N4CCC[C@H]4C(=O)N[C@H](C(=O)N=S(C)(=O)Cc4cc5cc(c4)OCCCCOc4cc(F)ccc4-c4nc(ncc4F)N5)C(C)C)cc3)c2)c1 (single isomer, unassigned) | > 1000 nM
CCCNC(=O)Nc1cccc(S(=O)(=O)Nc2cccc([C@H](CC(=O)O)NC(=O)Nc3ccc(NC(=O)NCCOCCOCCOCCC(=O)NCCCC[C@H](NC(=O)CCOCCOCCOCCNC(=O)Nc4ccc(NC(=O)N[C@@H](CC(=O)O)c5cccc(NS(=O)(=O)c6cccc(NC(=O)NCCC)c6)c5)cc4)C(=O)NCCOCCOCCOCCC(=O)N[C@@H](CC(=O)O)C(=O)N4CCC[C@H]4C(=O)N[C@H](C(=O)N=[S@@](C)(=O)Cc4cc5cc(c4)OCCCCOc4cc(F)ccc4-c4nc(ncc4F)N5)C(C)C)cc3)c2)c1 | 100 to 1000 nM
